Test: method code SF-HPLC, from Li, N. Y., Li, Y., & Gorrod, J. W. (1992). Determination of partition coefficients and ionisation constants of(S)(-)-nicotine and certain metabolites. Med. Sci. Res., 20(23)901-902.
Conditions: pH 2.0
reported.metric: logD
Answers are plain numbers.

O=C(O)Cc1cccnc1 = -2.42

logD for `O=C(O)CCC(=O)c1cccnc1` is -1.06
